Below, each entry is listed with its recorded IGF-1R/IR Comparison.
biological target: T1, Soluble IGF-1R (R&D Systems, Cat. # 391-GR/CF); recombinant human IGF-1R (human, UniProt P08069 31-935); assay: phage ELISA, vs IR
T1 construct: extracellular domain; Eu3+-labelled in the TR-FRET assays; also called sIGF-1R; rhIGF-1R
Positions of bridges follow the written chain, without caps; N, C: chain ends. No end group written: not given here.
Value expressed in ratio; do not type the unit.

binder="PAGPCGFYCGLGLLLHGDQSP (disulfide 5-9 (inferred)) [20E2B-4-H8-IGFR]" measurement=5.9
binder="AVRATRFDEAFYDWFVRQISDGQGNK [H2CA-4-86-GFR]" measurement=6.4
binder="FYVQQWGHENFYDWFDRQVSQSGGAG [H2CA-4-F1-IGFR]" measurement=3.8

Tell me the measured IGF-1R/IR Comparison of QAVQPGFHEEFYDWFVRQVSTGVGGG [H2CA-4-H4-IGFR] , please.
4.2
